Listed below: PBM binding z-score values for each entry.
Tested on: PPARg DBDmut IVT, anti-PPARg (DBD mutation: PPARg1 K132A/R137A, NR concentration 270 nM)
Assay: PBM binding z-score (relative to random genomic background probes); higher = stronger binding; sequences stand for … in GC…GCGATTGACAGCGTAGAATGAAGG
Number only, no unit.

TCTCGGAGGACACGAAGGTGAGAGCTTTCCAGAG :: -1.52
CCTACTGGGCCAAAAAGGTCGTTGATGCCGATAA :: -1.31
GCTAGTTGGTCAGTAAAAGATCACACACCGGTCG :: 0.421
GGAACGATGGCAAGTTGATAGCAGAGTTTGATGG :: -0.527
CCTACAGGGCCAAAAAGGTCATTGATGCCGATAA :: -1.06
CCGACTAGGGCAAAGGTTACCATACTCAGTACGA :: 0.896
CCTACTGGGCCAAGGTCACTGATCAGTCAAAGCA :: -0.598
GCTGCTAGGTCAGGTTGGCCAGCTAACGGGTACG :: -0.956

## Input Form field: reported PBM binding z-score of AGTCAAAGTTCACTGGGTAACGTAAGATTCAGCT
## Output 0.335

## Input Input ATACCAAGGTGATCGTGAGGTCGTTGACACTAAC
## Output 0.642

## Input Subsequent entry: CCTTACCGGTCACGAGGTTATAGCACGACGAGCG
## Output 0.533

## Input Now give it for TTACCAAGGTGACAGGTCGTTGATGCACGCCTTG too.
## Output 0.0595

## Input Moving on to the next sequence: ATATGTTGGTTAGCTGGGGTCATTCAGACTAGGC
## Output 1.26

## Input Queued: GCATATAGGAAATACAAGGTGAAAGTCCGATTGT
## Output 0.353

## Input Could you do the same for GCTAGCAGGCCATTTGGGTCACTCACTGACGGGC , please?
## Output -1.1

## Input Now the same for CCCGCTAGGTCAATGGTCAGCTAAAGCAGCTCGC
## Output -0.484
